molecular target: Growth hormone secretagogue receptor type 1 (Homo sapiens, UniProt Q92847); experiment: Antagonist activity at recombinant human GHSR1a expressed in HEK293 cells assessed as inhibition of ghrelin-induced intracellular calcium release incubated for 20 secs and measured after 2 mins by FLIPR assay
Sequence (Q92847 whole entry): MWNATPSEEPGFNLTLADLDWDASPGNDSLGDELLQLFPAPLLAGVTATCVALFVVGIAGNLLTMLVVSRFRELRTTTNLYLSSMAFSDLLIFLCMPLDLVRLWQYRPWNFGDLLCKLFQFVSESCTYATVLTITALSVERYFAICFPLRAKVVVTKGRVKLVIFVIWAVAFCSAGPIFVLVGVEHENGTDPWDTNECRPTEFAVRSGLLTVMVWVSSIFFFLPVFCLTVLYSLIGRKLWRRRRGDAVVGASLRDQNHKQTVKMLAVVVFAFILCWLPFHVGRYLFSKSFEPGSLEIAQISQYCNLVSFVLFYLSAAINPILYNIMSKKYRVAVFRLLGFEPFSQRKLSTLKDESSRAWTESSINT
pIC50: −log10 of the molar value.
Decide by pIC50: equal to or exceeding 6 means rule met, less means rule not met.

Worked examples follow.
Cc1ccc2c(c1)CCC2N1CCC(N(C)C(=O)N[C@@H](C)c2ccc(C#CC3CC3)c(Cl)c2Cl)CC1 (stereo partly drawn) ... rule met
Cc1ccc2c(c1)CCC2N1CCC(N(C)C(=O)N[C@@H](C)c2ccc(C3CC3)c(Cl)c2Cl)CC1 (stereo partly drawn) ... rule not met
COc1ccc2c(c1)CCC2N1CCC(N(C)C(=O)N[C@@H](C)c2ccc(OC)c(Cl)c2Cl)CC1 (stereo partly drawn) ... rule met
Cc1cc(-c2ccc3c(c2)CCC3N2CCC(N(C)C(=O)N[C@@H](C)c3ccc(-c4cnccn4)c(Cl)c3Cl)CC2)ncn1 (stereo partly drawn) ... rule met
Cc1cc(-c2ccc3c(c2)CCC3N2CCC(N(C)C(=O)N[C@@H](C)c3ccc(C#CC4CC4)c(Cl)c3Cl)C(C)(C)C2)ncn1 (stereo partly drawn) ... rule met
COc1ccc([C@H](C)NC(=O)N(C)C2CCN(C3CCc4cc(Cl)ccc43)CC2)c(Cl)c1Cl (stereo partly drawn) ... rule met

Now examine the next entry.
Exam item: Decide: pIC50 of Cc1cn2cc(C(C)NC(=O)N(C)C3CCN(C)CC3)nc2s1 (stereo not drawn) >= 6?
Marked response: rule not met
